Origin of the recorded values: paper PMC3025356

tgt: T1, S100A4 (wild type, full-length) (UniProt P26447 1-101)
T1 construct: S100A4, wild type, called full-length in the NMR experiment with M111; The tag and the vector are not described; also called Mts1; metastasin; source: E. coli BL21(DE3), purified (Ni-NTA, Superdex 75)
assay details: fluorescence polarisation; competition: displacement of F-M16^N (5 μM) from S100A4 (5 μM) by increasing M32 or M16^N, with Ca2+; fit to a competitive single-site model with Kd of F-M16^N fixed at 2 μM
condition notes: both partners purified
endpoint name: pKd
Formally, pKd is defined as -log10 of the concentration c, with c in mol/L.

pKd lookup needed for Ac-ADAMNREVSSLKNKLRRGDLPFVVPRRMARKG-NH2 (peptide, UniProt P35579-1 1907-1938, looked up, nonmuscle myosin heavy chain IIA (NM-MHC IIA), human, residues A1907-G1938; source: synthetic peptide, bought: Peptide 2.0, Inc) [M32 myosin peptide (NM-MHC IIA A1907-G1938)] , thanks.
5.52
